subject.of.test: SHV-5 (Klebsiella pneumoniae, UniProt P0A3M1)
Sequence (P0A3M1 22-286): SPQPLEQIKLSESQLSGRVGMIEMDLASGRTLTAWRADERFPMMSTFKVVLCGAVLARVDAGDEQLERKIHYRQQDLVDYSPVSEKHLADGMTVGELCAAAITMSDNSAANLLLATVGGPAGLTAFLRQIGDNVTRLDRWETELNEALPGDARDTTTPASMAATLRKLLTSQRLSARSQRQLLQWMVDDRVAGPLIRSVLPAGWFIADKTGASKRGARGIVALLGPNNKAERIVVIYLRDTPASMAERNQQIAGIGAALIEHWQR
protocol.text: β-lactamase enzyme inhibition assay, SHV-5 (cefotaxime substrate)
Below, each of the molecules is paired with its reported IC50 value.
measured.endpoint: IC50

[
  {
    "compound.structure": "CN(C)CCn1nnnc1CC(=O)N[C@H]1Cc2cccc(C(=O)O)c2OB1O",
    "measured.endpoint": "IC50",
    "endpoint.result": "< 100 nM"
  },
  {
    "compound.structure": "Nc1nc(=O)c(Cc2cn(CC(=O)N[C@H]3Cc4cccc(C(=O)O)c4OB3O)nn2)c(N)[nH]1",
    "measured.endpoint": "IC50",
    "endpoint.result": "< 100 nM"
  },
  {
    "compound.structure": "N=C(N)NCc1cn(CC(=O)N[C@H]2Cc3cccc(C(=O)O)c3OB2O)nn1",
    "measured.endpoint": "IC50",
    "endpoint.result": "< 100 nM"
  },
  {
    "compound.structure": "CNCc1c(CO)nnn1CC(=O)N[C@H]1Cc2cccc(C(=O)O)c2OB1O",
    "measured.endpoint": "IC50",
    "endpoint.result": "100 to 1000 nM"
  },
  {
    "compound.structure": "CC(C)(C(=O)N[C@H]1Cc2cccc(C(=O)O)c2OB1O)n1cc(CNCCN)nn1",
    "measured.endpoint": "IC50",
    "endpoint.result": "< 100 nM"
  },
  {
    "compound.structure": "CC(C)NCc1cn(CC(=O)N[C@H]2Cc3cccc(C(=O)O)c3OB2O)nn1",
    "measured.endpoint": "IC50",
    "endpoint.result": "100 to 1000 nM"
  },
  {
    "compound.structure": "NCCc1nnn(CC(=O)N[C@H]2Cc3cccc(C(=O)O)c3OB2O)n1",
    "measured.endpoint": "IC50",
    "endpoint.result": "100 to 1000 nM"
  },
  {
    "compound.structure": "O=C(Cc1nnn(CC2CCNCC2)n1)N[C@H]1Cc2cccc(C(=O)O)c2OB1O",
    "measured.endpoint": "IC50",
    "endpoint.result": "< 100 nM"
  },
  {
    "compound.structure": "N=CNCCn1nnnc1CC(=O)N[C@H]1Cc2cccc(C(=O)O)c2OB1O",
    "measured.endpoint": "IC50",
    "endpoint.result": "< 100 nM"
  },
  {
    "compound.structure": "NC(=O)c1ncn(CC(=O)N[C@H]2Cc3cccc(C(=O)O)c3OB2O)n1",
    "measured.endpoint": "IC50",
    "endpoint.result": "< 100 nM"
  },
  {
    "compound.structure": "NCCn1cnnc1CC(=O)N[C@H]1Cc2cccc(C(=O)O)c2OB1O",
    "measured.endpoint": "IC50",
    "endpoint.result": "< 100 nM"
  },
  {
    "compound.structure": "O=C(Cn1nnc(CN2CCOCC2)c1CN1CCOCC1)N[C@H]1Cc2cccc(C(=O)O)c2OB1O",
    "measured.endpoint": "IC50",
    "endpoint.result": "< 100 nM"
  },
  {
    "compound.structure": "NCc1cn(CC(=O)N[C@H]2Cc3cccc(C(=O)O)c3OB2O)nn1",
    "measured.endpoint": "IC50",
    "endpoint.result": "< 100 nM"
  },
  {
    "compound.structure": "NCc1nc(CC(=O)N[C@H]2Cc3cccc(C(=O)O)c3OB2O)cs1",
    "measured.endpoint": "IC50",
    "endpoint.result": "< 100 nM"
  },
  {
    "compound.structure": "O=C(Cn1cc(-c2ccsc2)nn1)N[C@H]1Cc2cccc(C(=O)O)c2OB1O",
    "measured.endpoint": "IC50",
    "endpoint.result": "< 100 nM"
  },
  {
    "compound.structure": "O=C(Cn1nnnc1CC(=O)N[C@H]1Cc2cccc(C(=O)O)c2OB1O)N[C@H]1CCNC1",
    "measured.endpoint": "IC50",
    "endpoint.result": "< 100 nM"
  },
  {
    "compound.structure": "NCCn1cc(CC(=O)N[C@H]2Cc3cccc(C(=O)O)c3OB2O)nn1",
    "measured.endpoint": "IC50",
    "endpoint.result": "< 100 nM"
  },
  {
    "compound.structure": "Cc1c(CN)nnn1CC(=O)N[C@H]1Cc2cccc(C(=O)O)c2OB1O",
    "measured.endpoint": "IC50",
    "endpoint.result": "100 to 1000 nM"
  },
  {
    "compound.structure": "O=C(Cn1nnc(CO)c1CO)N[C@H]1Cc2cccc(C(=O)O)c2OB1O",
    "measured.endpoint": "IC50",
    "endpoint.result": "< 100 nM"
  },
  {
    "compound.structure": "CC(C)NCCc1cn(CC(=O)N[C@H]2Cc3cccc(C(=O)O)c3OB2O)nn1",
    "measured.endpoint": "IC50",
    "endpoint.result": "100 to 1000 nM"
  },
  {
    "compound.structure": "NCCCn1nnnc1CC(=O)N[C@H]1Cc2cccc(C(=O)O)c2OB1O",
    "measured.endpoint": "IC50",
    "endpoint.result": "< 100 nM"
  },
  {
    "compound.structure": "NCCn1cc(C(=O)N[C@H]2Cc3cccc(C(=O)O)c3OB2O)nn1",
    "measured.endpoint": "IC50",
    "endpoint.result": "< 100 nM"
  },
  {
    "compound.structure": "O=C(Cn1cc(CNCCCC(F)(F)F)nn1)N[C@H]1Cc2cccc(C(=O)O)c2OB1O",
    "measured.endpoint": "IC50",
    "endpoint.result": "100 to 1000 nM"
  },
  {
    "compound.structure": "O=C(Cn1cc(CO)nn1)N[C@H]1Cc2cccc(C(=O)O)c2OB1O",
    "measured.endpoint": "IC50",
    "endpoint.result": "< 100 nM"
  },
  {
    "compound.structure": "NCC#Cc1c(CN)nnn1CC(=O)N[C@H]1Cc2cccc(C(=O)O)c2OB1O",
    "measured.endpoint": "IC50",
    "endpoint.result": "100 to 1000 nM"
  },
  {
    "compound.structure": "NNC(=O)Cn1nnc(CC(=O)N[C@H]2Cc3cccc(C(=O)O)c3OB2O)n1",
    "measured.endpoint": "IC50",
    "endpoint.result": "< 100 nM"
  },
  {
    "compound.structure": "NCc1cnn(CC(=O)N[C@H]2Cc3cccc(C(=O)O)c3OB2O)c1",
    "measured.endpoint": "IC50",
    "endpoint.result": "100 to 1000 nM"
  },
  {
    "compound.structure": "NCC(=O)NCc1cn(CC(=O)N[C@H]2Cc3cccc(C(=O)O)c3OB2O)nn1",
    "measured.endpoint": "IC50",
    "endpoint.result": "< 100 nM"
  },
  {
    "compound.structure": "NC1CCN(C(=O)c2cn(CC(=O)N[C@H]3Cc4cccc(C(=O)O)c4OB3O)nn2)CC1",
    "measured.endpoint": "IC50",
    "endpoint.result": "< 100 nM"
  },
  {
    "compound.structure": "N#Cc1ncn(CC(=O)N[C@H]2Cc3cccc(C(=O)O)c3OB2O)n1",
    "measured.endpoint": "IC50",
    "endpoint.result": "< 100 nM"
  },
  {
    "compound.structure": "NCCn1cnc(C(=O)N[C@H]2Cc3cccc(C(=O)O)c3OB2O)n1",
    "measured.endpoint": "IC50",
    "endpoint.result": "100 to 1000 nM"
  },
  {
    "compound.structure": "NCCc1nnnn1CC(=O)N[C@H]1Cc2cccc(C(=O)O)c2OB1O",
    "measured.endpoint": "IC50",
    "endpoint.result": "100 to 1000 nM"
  }
]
